METHOD_SUMMARY: Mouse pharmacokinetics (oral gavage / intravenous)
Assay type: in vivo, mice
RUN_CONDITIONS: plasma, iv; mouse, 10 mg/kg i.v.
MEASURED_ATTRIBUTE: clearance (mL/min/kg)
Give the value in mL/min/kg but do not write mL/min/kg after it.

Example molecules with recorded clearance:
O=C1NCC2(CCCCC2)n2c1cc1cnc(Nc3ccc(N4CCC(N5CCOCC5)CC4)cn3)nc12 ... 52
CC(C)N1CCN(c2ccc(Nc3ncc4cc5n(c4n3)C3(CCCCC3)CNC5=O)nc2)CC1 ... 82
O=C1NCC2(CCCCC2)n2c1cc1cnc(Nc3ccc(N4CCNCC4)cn3)nc12 ... 44

Switching to the query record.
Query :: Given the molecule `CN1CCN(c2ccc(Nc3ncc4cc5n(c4n3)C3(CCCCC3)CNC5=O)nc2)CC1` , write its reported clearance.
Result :: 35

* * *

TARGET_ENTITY: CDK2/CyclinA (Homo sapiens (Human), UniProt P24941)
METHOD_SUMMARY: CDK2/CyclinA kinase assay (Nanosyn, Caliper microfluidic)
Format: biochemical
RUN_CONDITIONS: Table 2
MEASURED_ATTRIBUTE: Fold Selectivity (CDK2/CycA/CDK4)
Note: the reply should be a number with no unit written.

Example molecules with recorded Fold Selectivity (CDK2/CycA/CDK4):
O=C1NCC2(CCCC2)n2c1cc1cnc(Nc3ccc(N4CCOCC4)nn3)nc12 [SSS] ... 917
CCN(CC)C1CCN(c2ccc(Nc3ncc4cc5n(c4n3)C3(CCCCC3)CNC5=O)nc2)CC1 [CC] ... 478

Query :: Given the molecule CC(C)N1CCN(c2ccc(Nc3ncc4cc5n(c4n3)C3(CCCCC3)CNC5=O)nn2)CC1 [TT] , write its reported Fold Selectivity (CDK2/CycA/CDK4).
Result :: 733

Query :: Given the molecule CC1CN(c2ccc(Nc3ncc4cc5n(c4n3)C3(CCCCC3)CNC5=O)nc2)C[C@@H](C)N1CC1CC1 (stereo partly shown) [OO] , write its reported Fold Selectivity (CDK2/CycA/CDK4).
Result :: 63

Query :: Given the molecule O=C1NCC2(CCCCC2)n2c1cc1cnc(Nc3ccc(N4CCN(CC5CC5)CC4)cn3)nc12 [HH] , write its reported Fold Selectivity (CDK2/CycA/CDK4).
Result :: 159

Query :: Given the molecule CC1CN(c2ccc(Nc3ncc4cc5n(c4n3)C3(CCCC3)CNC5=O)nc2)CCN1CC1CC1 (stereo not shown) [NNN] , write its reported Fold Selectivity (CDK2/CycA/CDK4).
Result :: 743

Query :: Given the molecule CCOCCN1CCN(c2ccc(Nc3ncc4cc5n(c4n3)C3(CCCC3)CNC5=O)nc2)CC1 [MMM] , write its reported Fold Selectivity (CDK2/CycA/CDK4).
Result :: 314

Query :: Given the molecule C[C@@H]1CN(c2ccc(Nc3ncc4cc5n(c4n3)C3(CCCCC3)CNC5=O)nc2)CCN1C[C@@H](C)O [J] , write its reported Fold Selectivity (CDK2/CycA/CDK4).
Result :: 6546

Query :: Given the molecule C[C@@H]1CN(c2ccc(Nc3ncc4cc5n(c4n3)C3(CCCCC3)CNC5=O)nc2)C[C@H](C)N1C[C@@H](C)O [MM] , write its reported Fold Selectivity (CDK2/CycA/CDK4).
Result :: 328

Query :: Given the molecule CC(C)N1CCN(c2ccc(Nc3ncc4cc5n(c4n3)C3(CCCCC3)CNC5=O)nc2)C[C@H]1C [L] , write its reported Fold Selectivity (CDK2/CycA/CDK4).
Result :: 260

Query :: Given the molecule C[C@@H]1CN(c2ccc(Nc3ncc4cc5n(c4n3)C3(CCCCC3)CNC5=O)nc2)C[C@H](C)N1C [DD] , write its reported Fold Selectivity (CDK2/CycA/CDK4).
Result :: 4519

Query :: Given the molecule CC(C)(C)CCN1CCN(c2ccc(Nc3ncc4cc5n(c4n3)C3(CCCC3)CNC5=O)nc2)CC1(C)C [CCC] , write its reported Fold Selectivity (CDK2/CycA/CDK4).
Result :: 226

Query :: Given the molecule C[C@H](O)CN1[C@H](C)CN(c2ccc(Nc3ncc4cc5n(c4n3)C3(CCCCC3)CNC5=O)nc2)C[C@@H]1C [Z] , write its reported Fold Selectivity (CDK2/CycA/CDK4).
Result :: 205

Query :: Given the molecule CC1(C)CN(c2ccc(Nc3ncc4cc5n(c4n3)C3(CCCCC3)CNC5=O)nc2)CCN1CC1CC1 [H] , write its reported Fold Selectivity (CDK2/CycA/CDK4).
Result :: 251

Query :: Given the molecule CC(C)N1CCN(c2ccc(Nc3ncc4cc5n(c4n3)C3(CCCCC3)CNC5=O)nc2)CC1 [Compound GG] , write its reported Fold Selectivity (CDK2/CycA/CDK4).
Result :: 1425

Query :: Given the molecule CN1CCN(c2ccc(Nc3ncc4cc5n(c4n3)C3(CCCCC3)CNC5=O)nc2)CC1(C)C [D] , write its reported Fold Selectivity (CDK2/CycA/CDK4).
Result :: 1629

Query :: Given the molecule CCC(C)CN1[C@H](C)CN(c2ccc(Nc3ncc4cc5n(c4n3)C3(CCCC3)CNC5=O)nc2)C[C@@H]1C (stereo partly shown) [JJJ] , write its reported Fold Selectivity (CDK2/CycA/CDK4).
Result :: 882

Query :: Given the molecule CN1CCN(C(=O)c2ccc(Nc3ncc4cc5n(c4n3)C3(CCCC3)CNC5=O)nc2)CC1 [BBB] , write its reported Fold Selectivity (CDK2/CycA/CDK4).
Result :: 31

Query :: Given the molecule O=C1NCC2(CCCCC2)n2c1cc1cnc(Nc3ccc(C(=O)N4CCN(C5CCC5)CC4)cn3)nc12 [LL] , write its reported Fold Selectivity (CDK2/CycA/CDK4).
Result :: 55

Query :: Given the molecule O=C1NCC2(CCCC2)n2c1cc1cnc(Nc3ccc(C(=O)N4CCN(CC5CC5)CC4)cn3)nc12 [OOO] , write its reported Fold Selectivity (CDK2/CycA/CDK4).
Result :: 85

Query :: Given the molecule CN(C)C1CCN(c2ccc(Nc3ncc4cc5n(c4n3)C3(CCCCC3)CNC5=O)nn2)CC1 [SS] , write its reported Fold Selectivity (CDK2/CycA/CDK4).
Result :: 1775

Source listed as patent US9464092B2.
